B1: KLHDC10 (parent)
chain: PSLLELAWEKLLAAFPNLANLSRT

Variants of: B1
ASSAY_NAME: protein stability index of a GFP-peptide fusion (GPS, HEK-293T) (PSI 1-6); higher = more stable;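 also: lentivirally expressed fusions sorted by FACS into six bins by GFP to DsRed ratio, PSI derived from sequencing read proportions per bin multiplied by bin number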
APPLIED_CONDITIONS: c terminus: a fixed tail appended
MEASUREMENT_NAME: protein stability index
Give bare numbers.

VARIANT_DESIGNATION: S22E
protein stability index: 2.59
--
VARIANT_DESIGNATION: S2F
protein stability index: 2.41
--
VARIANT_DESIGNATION: T24G
protein stability index: 2.17
--
VARIANT_DESIGNATION: L12P
protein stability index: 2.17
--
VARIANT_DESIGNATION: P16Y
protein stability index: 2.06

For the 4 variants below, give their protein stability index values.
1. A7Q
2. A13G
3. L6T
4. N20H

Output:
[2.29, 2.06, 2.23, 2.46]

For the 4 variants below, give their protein stability index values.
1. A19W
2. A13L
3. W8S
4. F15M

Output:
1.57
1.74
2.24
2.06

Taken from the supplement of paper PMC10567573.
